# Test system: Spn 106 S. pneumonia ATCC49619
# method_notes: broth dilution MIC, S. pneumoniae Spn 106
# Format: cell-based
# test_settings: Streptococcus pneumoniae, ATCC49619
The reader will find reported MIC values listed item by item below.
Output spec: scalar in µg/mL, unitless text.

In plain terms, CC[C@H]1OC(=O)[C@H](C)[C@@H](O[C@H]2C[C@@](C)(OC)[C@@H](O)[C@H](C)O2)[C@H](C)[C@@H](O[C@@H]2O[C@H](C)C[C@H](N(C)C)[C@H]2O)[C@](C)(O)C[C@@H](C)CN(C)[C@H](C)[C@@H](O)[C@]1(C)O [Azithromycin, reference compound] has a documented MIC of 0.0625

In plain terms, CC[C@H]1OC(=O)C(C)C(=O)[C@@H](C)[C@@H](O[C@@H]2OC(C)CC(N(C)C)C2O)[C@](C)(OC)C[C@@H](C)CN[C@H](C)[C@H]2N(CCCCn3cc(-c4cccc(N)c4)nn3)C(=O)O[C@]12C (stereo partly shown) has a documented MIC of 0.0625

In plain terms, CC[C@H]1OC(=O)C(C)C(=O)[C@@H](C)[C@@H](O[C@@H]2OC(C)CC(N(C)C)C2O)[C@](C)(OC)C[C@@H](C)CN[C@H](C)[C@H]2N(CCCCn3cc(-c4ccccn4)nn3)C(=O)O[C@]12C (stereo partly shown) has a documented MIC of 0.0625

* * *

# Test system: H. influenzae strains
# method_notes: MIC against H. influenzae strains (Table M8)
# Type: cell-based
# test_settings: Haemophilus influenzae, H. influenzae 49247; read-out: MIC H. influenzae (49247)
metric: MIC

Previously resolved entries follow.
CC[C@H]1OC(=O)[C@H](CC(=O)O)C(=O)[C@H](C)[C@@H](O[C@@H]2OC(C)CC(N(C)C)C2O)[C@](C)(OC)C[C@@H](C)CN[C@H](C)[C@H]2N(CCCCn3cc(-c4cccc(N)c4)nn3)C(=O)O[C@]12C (some centres unmarked)    > 32 µg/mL
CC[C@H]1OC(=O)C(C)(F)C(=O)[C@H](C)[C@@H](O[C@@H]2OC(C)CC(N(C)C)C2O)[C@](C)(OC/C=C/c2cnc3ccccc3c2)C[C@@H](C)CN[C@H](C)[C@H]2NC(=O)O[C@@]21C (some centres unmarked)    8 µg/mL
CC[C@H]1OC(=O)[C@H](C)C(=O)C[C@@H](O[C@@H]2OC(C)CC(N(C)C)C2O)[C@@](C)(OC)C[C@@H](C)CN[C@H](C)[C@H]2N(CCCCn3cc(-c4cccc(N)c4)nn3)C(=O)O[C@]12C (some centres unmarked)    16 µg/mL
CC[C@H]1OC(=O)[C@H](C)C(=O)[C@H](C)[C@@H](O[C@@H]2OC(C)CC(N(C)C)C2O)[C@](C)(OC)C[C@@H](C)CN[C@H](C)[C@H]2N(CCCCCn3cc(-c4cccc(N)c4)nn3)C(=O)O[C@]12C (some centres unmarked)    0.5 µg/mL
C=CC[C@@H]1[C@H]2N(CCCCn3cc(-c4cccc(N)c4)nn3)C(=O)O[C@]2(C)[C@@H](CC)OC(=O)[C@H](C)C(=O)[C@H](C)[C@@H](O[C@@H]2OC(C)CC(N(C)C)C2O)[C@](C)(OC)C[C@@H](C)CN1C (some centres unmarked)    8 µg/mL

In plain terms, CC[C@H]1OC(=O)[C@H](C)[C@@H](O[C@H]2C[C@@](C)(OC)[C@@H](O)[C@H](C)O2)[C@H](C)[C@@H](O[C@@H]2O[C@H](C)C[C@H](N(C)C)[C@H]2O)[C@](C)(O)C[C@@H](C)CN(C)[C@H](C)[C@@H](O)[C@]1(C)O [Azithromycin, reference compound] has a documented MIC of 0.25 µg/mL

In plain terms, CC[C@H]1OC(=O)[C@H](C)C(=O)[C@H](C)[C@@H](O[C@@H]2OC(C)CC(N(C)C)C2O)[C@](C)(OC)C[C@@H](C)CN[C@H](Cc2ccccc2)[C@H]2N(CCCCn3cc(-c4cccc(N)c4)nn3)C(=O)O[C@]12C (some centres unmarked) has a documented MIC of 2 µg/mL

In plain terms, C=CC[C@@]1(OC)C[C@@H](C)CN[C@H](C)[C@H]2N(CCCCn3cc(-c4cccc(N)c4)nn3)C(=O)O[C@]2(C)[C@@H](CC)OC(=O)[C@H](C)C(=O)[C@@H](C)[C@H]1O[C@@H]1OC(C)CC(N(C)C)C1O (some centres unmarked) has a documented MIC of 1 µg/mL
